# SYSTEM: Tau P301L (Homo sapiens, UniProt P10636, P618L)
# Construct: expressed in transfected cells
# Sequence (P10636 1-441 isoform P10636-8 P301L): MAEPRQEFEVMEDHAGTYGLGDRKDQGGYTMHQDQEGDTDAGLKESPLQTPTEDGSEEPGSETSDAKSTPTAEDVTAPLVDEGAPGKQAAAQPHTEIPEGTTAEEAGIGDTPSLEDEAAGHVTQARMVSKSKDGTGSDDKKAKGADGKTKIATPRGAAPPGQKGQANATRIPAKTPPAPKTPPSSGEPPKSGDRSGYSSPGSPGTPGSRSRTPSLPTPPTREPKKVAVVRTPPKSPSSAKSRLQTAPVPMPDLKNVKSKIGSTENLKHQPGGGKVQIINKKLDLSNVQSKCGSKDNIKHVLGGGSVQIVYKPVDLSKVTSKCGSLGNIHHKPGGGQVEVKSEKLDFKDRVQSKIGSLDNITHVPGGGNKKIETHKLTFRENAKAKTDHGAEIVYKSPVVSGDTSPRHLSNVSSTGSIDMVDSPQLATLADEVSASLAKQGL
# EXPERIMENTAL PROTOCOL: In vitro tau degradation assay in CHOK1 Tau P301L cells (sarkosyl insoluble tau, WES)
# Type: cell-based
# EXPERIMENTAL PARAMETERS: CHO-K1; remaining tau protein in sarkosyl insoluble pellet; CHOK1 Tau P301L cells treated 48 hours with test compound at 1 μM, doxycycline removed for the last 24 hours; relative to DMSO doxycycline control; read-out: Tau Protein Degradation effect at 1 μM
// reported remaining activity at 1 µM for each item listed

For orientation, consider the following solved cases.
N#Cc1cc(-c2ccc3c4cnccc4n(C(F)F)c3c2)cnc1N1CCC(CCN2CCN(c3ccc4c(c3)CN(C3CCC(=O)NC3=O)C4=O)CC2)CC1 (centres unmarked) | > 50%
Cn1c2ccncc2c2ccc(-c3ccc(O[C@H]4C[C@H](OCCCN5CCN(c6ccc7c(c6)C(=O)N(C6CCC(=O)NC6=O)C7=O)CC5)C4)nc3)cc21 (some centres unmarked) | < 50%

Can you look up the measured remaining activity at 1 µM of O=C1CCC(N2C(=O)c3ccc(OCCCN4CCC5(CC4)CN(c4ncc(-c6ccc7c8cnccc8n(C(F)F)c7c6)cc4F)C5)cc3C2=O)C(=O)N1 (centres unmarked) for me? < 50%

# lookup: remaining activity at 1 µM of Cn1c2ccncc2c2ccc(-c3ccc(O[C@H]4C[C@H](OC5CCN(CCN6CCN(c7ccc8c(c7)C(=O)N(C7CCC(=O)NC7=O)C8=O)CC6)CC5)C4)nc3)cc21 (some centres unmarked) > 50%

Which remaining activity at 1 µM reading was recorded for the molecule O=C1CCC(N2C(=O)c3ccc(N4CCN(CCC5CCN(c6ncc(-c7ccc8c9cncc(F)c9n(C(F)F)c8c7)cc6F)CC5)CC4)cc3C2=O)C(=O)N1 (centres unmarked) ? < 50%

// lookup remaining activity at 1 µM for O=C1CCC(N2C(=O)c3ccc(N4CCN(CCC5CCN(CCCn6c7ccccc7c7cnccc76)CC5)CC4)cc3C2=O)C(=O)N1 (centres unmarked) < 50%

Which remaining activity at 1 µM is reported for this molecule? O=C1CCC(N2C(=O)c3ccc(OCCN4CC5(C4)CN(C[C@H]4C[C@H](OC6CCN(c7ccn8c(n7)nc7ccccc78)CC6)C4)C5)cc3C2=O)C(=O)N1 (some centres unmarked) > 50%

---

# SYSTEM: Tau P301L (Homo sapiens, UniProt P10636, P618L)
# Construct: expressed in transfected cells
# EXPERIMENTAL PROTOCOL: In vitro tau degradation assay in CHOK1 Tau P301L cells (sarkosyl insoluble tau, WES)
# Assay type: cell-based
# EXPERIMENTAL PARAMETERS: CHO-K1; remaining tau protein in sarkosyl insoluble pellet; CHOK1 Tau P301L cells treated 48 hours with test compound at 1 μM, doxycycline removed for the last 24 hours; relative to DMSO doxycycline control; read-out: Tau Protein Degradation effect at 1 μM
ASSAY ENDPOINT: remaining activity at 1 µM

Cn1c2ccncc2c2ccc(-c3ccc(N4CC(OC5CCN(CCCCCOc6ccc7c(c6)C(=O)N(C6CCC(=O)NC6=O)C7=O)CC5)C4)nc3)cc21 (stereo not drawn) [Compound 382] | < 50%

Query remaining activity at 1 µM on Tau P301L (Homo sapiens, UniProt P10636, P618L) for Cc1ncsc1-c1ccc([C@H](C)NC(=O)[C@@H]2C[C@@H](O)CN2C(=O)[C@@H](NC(=O)COCCOCCOCCOCCOc2ccc3cc(-n4ccc5ccncc54)ncc3c2)C(C)(C)C)cc1 [Compound 375] > 50%

# value lookup — system Tau P301L (Homo sapiens, UniProt P10636, P618L), readout remaining activity at 1 µM, item Cc1cnc(Nc2ccc3cnccc3c2)cc1OCCOCCOCCOCCOc1ccc2c(c1)C(=O)N(C1CCC(=O)NC1=O)C2=O (stereo not drawn) [Compound 369] < 50%
